FYI, the data here is from patent US6544520B1.

EXPERIMENTAL_TARGET: hepatitis B virus core antigen (HBcAg) (hepatitis B virus)
Sequence (P03147 whole entry): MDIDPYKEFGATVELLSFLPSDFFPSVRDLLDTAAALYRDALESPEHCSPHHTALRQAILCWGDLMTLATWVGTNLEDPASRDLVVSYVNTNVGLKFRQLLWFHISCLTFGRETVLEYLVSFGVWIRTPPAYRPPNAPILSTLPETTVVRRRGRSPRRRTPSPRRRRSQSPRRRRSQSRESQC
ASSAY_TEXT: peptide inhibition of 35S-labeled L HBsAg binding to HBcAg-coated wells
PROPERTY_LABEL: pIC50
Scale explanation: pIC50 corresponds to minus log10 of a concentration expressed in moles per litre.

# input substance: peptide AcSLLGRMKG ; wanted: its pIC50
4.58

peptide SLLGRMKG(β-A)C ?
5.74

What do you get for peptide LGRMKG ?
3.01

Entry peptide LLGRMKG please
4.34

// next record peptide CLLGRMKC
3.19

Param item: peptide SLLGRMKG
5.19

What do you have for peptide ALLGRMKG ?
4.96

And the next one, peptide SLLGRMK ?
4.39
